System: U-251
Experiment: NCI tumour cell line growth inhibition, 48 h
Activity calls are given as the source filed them. Rule as the data show it: active = GI50 up to about 1.1 µM and inactive = higher.
measured property: GI50

Exercise: Recorded GI50 for CC(=O)Nc1ccc(COC(O)CN2CCCCC2)cc1[N+](=O)[O-] (stereo not drawn) , please?
Solution: > 100 µM (inactive)

Exercise: Recorded GI50 for c1ccc(CN[C@]23C4C5CC6C7C5C2C7[C@@](NCc2ccccc2)(C64)N3Cc2ccccc2)cc1 (stereo partly drawn) , please?
Solution: > 100 µM (inactive)

Exercise: Recorded GI50 for O=C(Nc1ccc(Cl)c(Cl)c1)C(=O)Nn1c(S)nc2ccccc2c1=O , please?
Solution: > 100 µM (inactive)

Exercise: Recorded GI50 for O=C(Cn1c(C(=O)/C=C/c2cccs2)nc2ccccc21)c1ccc(Cl)cc1 , please?
Solution: 14.4 µM (inactive)

Exercise: Recorded GI50 for Cn1c(=O)nc2n(-c3ccc(F)cc3)c3ccccc3nc-2c1=O , please?
Solution: 21.5 µM (inactive)

Exercise: Recorded GI50 for Cc1c2ccccc2nc2[nH]c3ccncc3c12 , please?
Solution: 30.1 µM (inactive)

Exercise: Recorded GI50 for CC(=O)Oc1c(C)cc2c(c1C)C(C)CN2C(C)=O (stereo not drawn) , please?
Solution: > 100 µM (inactive)

Exercise: Recorded GI50 for Cn1c2c([N+](=O)[O-])[se]nc2c(=O)n1-c1ccc([N+](=O)[O-])cc1 , please?
Solution: 2.51 µM (inactive)

Exercise: Recorded GI50 for CCOC(=O)C1S/C(=N\c2ccc(Cl)cc2)N=C1C (stereo not drawn) , please?
Solution: 18.8 µM (inactive)

Exercise: Recorded GI50 for O=C1Nc2cc(Cl)ccc2N=CC1NC(=O)C(c1ccccc1)c1ccccc1Cl (stereo not drawn) , please?
Solution: > 100 µM (inactive)

Exercise: Recorded GI50 for CC1=C(C(=O)OCCO[N+](=O)[O-])C(c2ccccc2C(F)(F)F)C(C(=O)OC(C)C)=C(C)N1 (stereo not drawn) , please?
Solution: 14.6 µM (inactive)

Exercise: Recorded GI50 for O=c1[nH]c(=O)n(C2OC(CO)C(O)C2O)cc1OCc1ccccc1 (stereo not drawn) , please?
Solution: > 58.2 µM (inactive)

Exercise: Recorded GI50 for CC(C)(CCC(C)(C)c1ccccc1)c1ccccc1 , please?
Solution: 16.7 µM (inactive)

====

Test system: SNB-78
Assay: NCI tumour cell line growth inhibition, 48 h
Calls of active or inactive are those of the source. Cut-off read from the data, not from the text of the source: active = GI50 up to about 1.1 µM and inactive = higher.
I'd be grateful if you could share measured GI50 for these entries.

Exercise: Value wanted: GI50 (SNB-78) of entry CCN(CC)CCSc1nc2cccc([N+](=O)[O-])c2[nH]1
Solution: > 100 µM (inactive)

Exercise: Value wanted: GI50 (SNB-78) of entry CCN(CC)CC(C(=O)Nc1c(C)cccc1C)/C(C)=N\NC(=O)C[N+](C)(C)C (stereo unspecified)
Solution: > 100 µM (inactive)

Exercise: Value wanted: GI50 (SNB-78) of entry COC(=O)c1ccc(OCc2ccc3oc(=O)c(-c4ccccc4)nc3c2)cc1
Solution: > 100 µM (inactive)

Exercise: Value wanted: GI50 (SNB-78) of entry COC1/C=C/OC2(C)Oc3c(C)c(O)c4c(c3C2=O)C(=O)C=C(NC(=O)/C(C)=C\C=C\C(C)C(OC=O)C(C)C(O)C(C)C(OC(C)=O)C1C)C4=O (stereo unspecified)
Solution: 20.1 µM (inactive)

Exercise: Value wanted: GI50 (SNB-78) of entry COc1cccc(-c2cc(C(=O)Nc3ccc(Cl)cc3)nc(N)n2)c1
Solution: > 100 µM (inactive)

Exercise: Value wanted: GI50 (SNB-78) of entry O=C(O)CCC(=O)N1c2ccccc2CC1c1c[nH]c2ccccc12 (stereo unspecified)
Solution: > 100 µM (inactive)
